meta.source: patent US12509460B2

Recorded MDCK-MDR1: % Recov A-B, one value per entry.
Tested on: MDR1-MDCK cell monolayers
experimental.parameters: dog, MDCK-MDR1, 120 min, 5 μM, pH 7.4
Write down the numeric answer in % and omit the unit.

compound	target.under.test	measured.number
CN(C)C(=O)c1cc(O)c(-c2ccc(N(C)[C@@H]3C[C@H]4CC[C@H](N4)[C@@H]3F)nn2)cc1F (single isomer, unassigned) [Compound 53A]	MDR1-MDCK cell monolayers	96
CN(c1ccc(-c2ccccc2O)nn1)[C@H]1C[C@@H]2CC[C@@H](N2)[C@H]1F (single isomer, unassigned) [Compound 119B]	MDR1-MDCK cell monolayers	93

Attention now turns to another entry.
MDCK-MDR1: % Recov A-B for Cc1nc2cc(O)c(-c3ccc(N(C)[C@@H]4C[C@H]5CC[C@H](N5)C4F)nn3)cc2o1 (stereo in doubt) [Compound 40A] is 62

* * *

Tested on: MDR1 (P-gp)
test.summary: Blood-brain-barrier (BBB) penetration potential via MDCK-MDR1 permeability assay
experimental.parameters: dog, MDCK-MDR1, pH 7.4, MDCK-MDR1: Papp A-B, A-B direction
Recorded Papp A→B at 120 min, 5 μM, one value per entry.
Write down the numeric answer in ×10⁻⁶ cm/s and omit the unit.

molecule	Papp A→B at 120 min, 5 μM, ×10⁻⁶ cm/s
CN(c1ccc(-c2cc3ncn(C)c(=O)c3cc2O)nn1)[C@@H]1C[C@H]2CC[C@H](N2)[C@@H]1F [Compound 51A]	0.81
COc1cn(-c2ccc(-c3ccc(N(C)[C@H]4C[C@@H]5CC(F)(F)[C@H](C4)N5)nn3)c(O)c2)cn1 [Compound 19B]	12.2
Cc1cnc(-c2ccc(-c3ccc(N(C)C4CC5CCC(N5)C4F)nn3)c(O)c2)o1 (single isomer, unassigned) [Compound 48B]	6.56

Attention now turns to another entry.
Papp A→B at 120 min, 5 μM for CN(c1ccc(-c2cc3ccncc3s2)nn1)[C@H]1C[C@@H]2CC[C@@H](N2)[C@H]1F [Compound 65B] is 6.9

* * *

Tested on: MDR1 (P-gp)
test.summary: in vitro
experimental.parameters: dog, MDCK-MDR1, pH 7.4
quantity.name: Papp B→A at 120 min, 5 μM (×10⁻⁶ cm/s)
Write down the numeric answer in ×10⁻⁶ cm/s and omit the unit.

compound	measured.number
CN(c1ccc(-c2ccc(C(F)F)cc2O)nn1)[C@H]1C[C@@H]2CC[C@@H](N2)[C@H]1F (single isomer, unassigned) [Compound 120B]	27.3

Papp B→A at 120 min, 5 μM for CN(c1ccc(-c2cnc(-c3cnn(C)c3)nc2O)nn1)[C@H]1C[C@@H]2CC[C@@H](N2)[C@H]1F (racemic) [Compound 122] is 0.6

Papp B→A at 120 min, 5 μM for CC(=O)Nc1ccc(-c2ccc(N(C)[C@@H]3C[C@H]4CC[C@H](N4)[C@@H]3F)nn2)c(O)c1 (single isomer, unassigned) [Compound 32A] is 20.2

Papp B→A at 120 min, 5 μM for CN(c1ccc(-c2cn3c(=O)ccnc3cc2O)nn1)[C@H]1C[C@@H]2CC[C@@H](N2)[C@H]1F (single isomer, unassigned) [Compound 82B] is 3.28

Papp B→A at 120 min, 5 μM for CN(c1ccc(-c2cc3ncn(CC(F)(F)F)c(=O)c3cc2O)nn1)[C@@H]1C[C@H]2CCC[C@@H]([C@@H]1F)N2C (single isomer, unassigned) [Compound 109A] is 63.3

Papp B→A at 120 min, 5 μM for CN(c1ccc(-c2cc3ccn(C)c(=O)c3s2)nn1)[C@@H]1C[C@H]2CC[C@H](N2)[C@@H]1F (single isomer, unassigned) [Compound 67A] is 37.9

* * *

Tested on: MDR1 (P-gp)
test.summary: Blood-brain-barrier (BBB) penetration potential via MDCK-MDR1 permeability assay
experimental.parameters: dog, MDCK-MDR1, pH 7.4, MDCK-MDR1: Papp B-A, B-A direction
Recorded Papp B→A at 120 min, 5 μM, one value per entry.
Write down the numeric answer in ×10⁻⁶ cm/s and omit the unit.

For orientation, consider the following solved cases.
compound	measured.number
CN(c1ccc(-c2cc3ncccc3cc2O)nn1)[C@@H]1C[C@H]2CC[C@H](N2)[C@@H]1F [Compound 73A]	61.3
CN(c1ccc(-c2cc3c(=O)n(C)cnc3cc2O)nn1)[C@@H]1C[C@H]2CC[C@H](N2)[C@@H]1F [Compound 85A]	49.2
CN(c1ccc(-c2ccc(-c3cnn(C)c3)cc2O)nn1)[C@@H]1C[C@H]2CC(F)(F)[C@@H](C1)N2 [Compound 3A]	33.8
CN(c1ccc(-c2ccc(-c3cnn(C(F)F)c3)cc2O)nn1)[C@H]1C[C@@H]2CC[C@@H](N2)[C@H]1F [Compound 20B]	39.2

Form field, Papp B→A at 120 min, 5 μM with MDR1 (P-gp), item Cc1cc(=O)c2cc(-c3ccc(N(C)[C@H]4C[C@@H]5CC[C@@H](N5)[C@H]4F)nn3)c(O)cc2o1 [Compound 50B] : 51.8

Form field, Papp B→A at 120 min, 5 μM with MDR1 (P-gp), item CN(c1ccc(-c2cc3nccnc3cc2O)nn1)[C@H]1C[C@@H]2CC[C@@H](N2)[C@H]1F [Compound 88B] : 50.5

Form field, Papp B→A at 120 min, 5 μM with MDR1 (P-gp), item CN(c1ccc(-c2ccc(-n3cnc(Cl)c3)cc2O)nn1)[C@H]1C[C@@H]2CC(F)(F)[C@H](C1)N2 [Compound 37B] : 32.7

Form field, Papp B→A at 120 min, 5 μM with MDR1 (P-gp), item CN(c1ccc(-c2cc3c(=O)n(C)ccc3s2)nn1)[C@H]1C[C@@H]2CC[C@@H](N2)[C@H]1F (single isomer, unassigned) [Compound 68B] : 44.7

Form field, Papp B→A at 120 min, 5 μM with MDR1 (P-gp), item CN(c1ccc(-c2ccc(C#N)cc2O)nn1)[C@@H]1C[C@H]2CCC[C@H](N2)[C@@H]1F [Compound 39A] : 40.5

Form field, Papp B→A at 120 min, 5 μM with MDR1 (P-gp), item CN(c1ccc(-c2cc3ccncc3s2)nn1)[C@H]1C[C@@H]2CC[C@@H](N2)[C@H]1F [Compound 65B] : 54.6

Form field, Papp B→A at 120 min, 5 μM with MDR1 (P-gp), item CN(c1ccc(-c2ccc(-n3ccnc3)cc2O)nn1)[C@@H]1C[C@H]2CC[C@H](N2)[C@@H]1F [Compound 4A] : 44.8

Form field, Papp B→A at 120 min, 5 μM with MDR1 (P-gp), item CN(c1ccc(-c2ccc(-n3cnc(Cl)c3)cc2O)nn1)C1CC2CC(F)(F)C(C1)N2 (single isomer, unassigned) [Compound 37A] : 34.4

* * *

Test system: MDR1-MDCK cell monolayers
test.summary: Blood-brain-barrier (BBB) penetration potential via MDCK-MDR1 permeability assay
experimental.parameters: B-A direction
quantity.name: MDCK-MDR1: % Recov B-A (%)
Write down the numeric answer in % and omit the unit.

MDCK-MDR1: % Recov B-A for CN(c1ccc(-c2cc3ccn(C)c(=O)c3cc2O)nn1)[C@H]1C[C@@H]2CC[C@@H](N2)[C@H]1F [Compound 84B] is 76

MDCK-MDR1: % Recov B-A for CN(c1ccc(-c2cc(C#N)c(F)cc2O)nn1)[C@H]1C[C@@H]2CC[C@@H](N2)[C@H]1F [Compound 72B] is 74

MDCK-MDR1: % Recov B-A for CN(c1ccc(-c2cc3ncccc3cc2O)nn1)[C@@H]1C[C@H]2CCC[C@H](N2)[C@@H]1F [Compound 78A] is 89

MDCK-MDR1: % Recov B-A for CN(c1ccc(-c2cc3ncn(CC(F)(F)F)c(=O)c3cc2O)nn1)[C@@H]1C[C@H]2CCC[C@H](N2)[C@@H]1F [Compound 58A] is 89

MDCK-MDR1: % Recov B-A for CN(c1ccc(-c2ccc(-n3nccn3)cc2O)nn1)[C@@H]1C[C@H]2CC[C@H](N2)[C@@H]1F [Compound 90A] is 69

MDCK-MDR1: % Recov B-A for CN(c1ccc(-c2ccc(-c3cn[nH]c3)cc2O)nn1)C1CC2COCC(N2)C1F (centres unmarked) [Compound 8A] is 93

MDCK-MDR1: % Recov B-A for CN(c1ccc(-c2ccc(-c3nnco3)cc2O)nn1)[C@@H]1C[C@H]2CC[C@H](N2)[C@@H]1F [Compound 44A] is 86

MDCK-MDR1: % Recov B-A for CN(c1ccc(-c2ccc(-c3cnn(C)c3)cc2O)nn1)[C@@H]1C[C@H]2CCC[C@H](N2)[C@@H]1F [Compound 15A] is 70

* * *

Recorded Papp A→B at 120 min, 5 μM, one value per entry.
Test system: MDR1 (P-gp)
test.summary: Blood-brain-barrier (BBB) penetration potential via MDCK-MDR1 permeability assay
experimental.parameters: dog, MDCK-MDR1, pH 7.4, MDCK-MDR1: Papp A-B, A-B direction
Put down the number, then write its unit next to it.

For orientation, consider the following solved cases.
molecule	Papp A→B at 120 min, 5 μM
CN(c1ccc(-c2ccc(-n3nccn3)cc2O)nn1)[C@@H]1C[C@H]2CCC[C@H](N2)[C@@H]1F	48.5 nm/s
Cc1cnc(-c2ccc(-c3ccc(N(C)[C@H]4C[C@@H]5CCC[C@@H](N5)[C@H]4F)nn3)c(O)c2)cn1 [Compound 26B]	27.6 nm/s
CCN(c1ccc(-c2ccc(-c3cn[nH]c3)cc2O)nn1)[C@H]1C[C@@H]2CC[C@@H](N2)[C@H]1F [Compound 12B]	7 nm/s
CN(c1ccc(-c2cc(F)c(-n3ccnn3)cc2O)nn1)[C@H]1C[C@@H]2CC[C@@H](N2)[C@H]1F [Compound 52B]	74.4 nm/s
CN(c1ccc(-c2ccc(-n3cnc(Cl)c3)cc2O)nn1)C1CC2CC(F)(F)C(C1)N2 (single isomer, unassigned) [Compound 37A]	173 nm/s

Papp A→B at 120 min, 5 μM for CN(c1ccc(-c2ccc(-c3cnccn3)cc2O)nn1)[C@@H]1C[C@H]2CCC[C@H](N2)[C@@H]1F [Compound 24A] is 47.3 nm/s

Papp A→B at 120 min, 5 μM for CN(c1ccc(-c2ccc(-n3cnc(C#N)c3)cc2O)nn1)[C@@H]1C[C@H]2CCC[C@H](N2)[C@@H]1F [Compound 63A] is 15 nm/s

Papp A→B at 120 min, 5 μM for CN(c1ccc(-c2cc3ncn(CC(F)(F)F)c(=O)c3cc2O)nn1)[C@@H]1C[C@H]2CC[C@H](N2)[C@@H]1F [Compound 81A] is 3.7 nm/s

Papp A→B at 120 min, 5 μM for CN(c1ccc(-c2ccc(C3=CCCC3)cc2O)nn1)[C@@H]1C[C@H]2CC[C@H](N2)[C@@H]1F [Compound 34A] is 6.3 nm/s

Papp A→B at 120 min, 5 μM for CN(c1ccc(-c2cc3c(=O)n(C)ccc3s2)nn1)[C@@H]1C[C@H]2CC[C@H](N2)[C@@H]1F (single isomer, unassigned) [Compound 68A] is 4.1 nm/s

Papp A→B at 120 min, 5 μM for CN(c1ccc(-c2cc3c(=O)n(C)ccc3s2)nn1)[C@H]1C[C@@H]2CC[C@@H](N2)[C@H]1F (single isomer, unassigned) [Compound 68B] is 4 nm/s

Papp A→B at 120 min, 5 μM for Cc1cnc(-c2ccc(-c3ccc(N(C)[C@@H]4C[C@H]5CC[C@H](N5)[C@@H]4F)nn3)c(O)c2)o1 [Compound 48A] is 37.1 nm/s
